molecular target: GST-Atrophin-1 Interacting Protein PDZ domain 1 (Rattus norvegicus (Rat)), O88382; assay: G assay titration, PDZ 5 ug/ml
Sequence (O88382 408-511): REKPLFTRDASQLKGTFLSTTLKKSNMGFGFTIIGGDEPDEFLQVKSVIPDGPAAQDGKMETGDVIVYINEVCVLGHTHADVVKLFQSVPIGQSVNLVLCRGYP

[
  {
    "binder": "TFAAGFNSTGLPHSTTRV (modifications not checked) [Neuroligin]",
    "Kd (nM)": 250
  }
]
